Source of measurements: patent US20120283184A1

The entries below come with measured Binding to 1 nM KDR, % values attached.
target: T1, human vascular endothelial growth factor receptor-2 Fc chimera (KDR-Fc) (human, UniProt P35968 20-764); assay: radioactive equilibrium binding, 1 nM KDR-Fc, % of input
T1 construct: range 1-764; also called human VEGFR-2; not shown: human IgG1 Fc
T1 sequence (P35968 20-764 limits assumed, change not shown, form in doubt): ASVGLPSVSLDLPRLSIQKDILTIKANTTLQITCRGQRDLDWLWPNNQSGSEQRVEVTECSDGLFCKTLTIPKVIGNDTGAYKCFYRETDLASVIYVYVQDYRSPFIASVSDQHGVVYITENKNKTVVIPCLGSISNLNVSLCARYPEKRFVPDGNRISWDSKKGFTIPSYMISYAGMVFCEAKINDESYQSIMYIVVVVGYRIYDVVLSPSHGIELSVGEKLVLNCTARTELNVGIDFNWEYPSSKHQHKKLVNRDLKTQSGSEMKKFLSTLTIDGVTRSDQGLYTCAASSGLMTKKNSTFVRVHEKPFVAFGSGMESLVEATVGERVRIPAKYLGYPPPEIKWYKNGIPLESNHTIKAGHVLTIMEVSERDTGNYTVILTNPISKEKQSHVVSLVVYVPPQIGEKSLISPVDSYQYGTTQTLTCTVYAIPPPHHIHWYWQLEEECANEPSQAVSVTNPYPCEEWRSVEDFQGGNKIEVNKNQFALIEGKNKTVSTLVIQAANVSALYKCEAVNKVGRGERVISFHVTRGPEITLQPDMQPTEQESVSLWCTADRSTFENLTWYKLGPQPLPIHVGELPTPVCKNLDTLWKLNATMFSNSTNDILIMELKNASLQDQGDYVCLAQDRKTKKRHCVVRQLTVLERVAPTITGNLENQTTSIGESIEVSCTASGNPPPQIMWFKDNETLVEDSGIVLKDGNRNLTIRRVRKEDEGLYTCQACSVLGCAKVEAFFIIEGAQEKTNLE
Measurement Type: Binding to 1 nM KDR, %

INSERT INTO results (binder, measured_value) VALUES
  ('4C9 PR3 (designed binder) EVVAATPTSLLISWRHPHFPTRYYRITYGETGGNSPVQEFTVPLQPPTATISGLKPGVDYTITVYAVTLAQNDHELLTPISINYRT', '16%'),
  ('4H5 PR3 (designed binder) EVVAATPTSLLISWRHPHFPTRYYRITYGETGGNSPVQEFTVPLQPPTATISGLKPGVDYTITVYAVTVAQNGHELITPISINYRT', '14%'),
  ('2′Del D3 PR4 (designed binder) EVVAATPTSLLISWRHPHFPTRYYRITYGETGGNSPVQEFTVPLQPPTATISGLKPGVDYTITVYAVTSGLNDRVLFIPISINYRT', '38%'),
  ('4′G4 PR4 (designed binder) EVVAATPTSLLISWRHPHFPTRYYRITYGETGGNSPVQEFTVPLQPPTATISGLKPGVDYTITVYAVTVAQNDRELLTPISINYRT', '19%'),
  ('4′B8 PR4 (designed binder) EVVAATPTSLLISWRHPHFPTRYYRITYGETGGNSPVQEFTVPLQPPTATISGLKPGVDYTITVYAVTVAQNDHKLFIPISINYRT', '20%');
